The measurements presented in this section are drawn from patent US10106542B2.

molecular target: human mGlu2 receptor (Homo sapiens); construct: expressed in transfected cells; host or cells: CHO cells (membrane preparation); test: [35S]GTPγS binding assay (mGluR2 negative allosteric modulation); assay type: biochemical; details: membranes from CHO cells transfected with human mGlu2 receptor; glutamate 60 μM; pIC50 = −log IC50 (M); read-out: GTPγS - hmGluR2 anGT pIC50 (converted)
Sequence (Q14416 19-872): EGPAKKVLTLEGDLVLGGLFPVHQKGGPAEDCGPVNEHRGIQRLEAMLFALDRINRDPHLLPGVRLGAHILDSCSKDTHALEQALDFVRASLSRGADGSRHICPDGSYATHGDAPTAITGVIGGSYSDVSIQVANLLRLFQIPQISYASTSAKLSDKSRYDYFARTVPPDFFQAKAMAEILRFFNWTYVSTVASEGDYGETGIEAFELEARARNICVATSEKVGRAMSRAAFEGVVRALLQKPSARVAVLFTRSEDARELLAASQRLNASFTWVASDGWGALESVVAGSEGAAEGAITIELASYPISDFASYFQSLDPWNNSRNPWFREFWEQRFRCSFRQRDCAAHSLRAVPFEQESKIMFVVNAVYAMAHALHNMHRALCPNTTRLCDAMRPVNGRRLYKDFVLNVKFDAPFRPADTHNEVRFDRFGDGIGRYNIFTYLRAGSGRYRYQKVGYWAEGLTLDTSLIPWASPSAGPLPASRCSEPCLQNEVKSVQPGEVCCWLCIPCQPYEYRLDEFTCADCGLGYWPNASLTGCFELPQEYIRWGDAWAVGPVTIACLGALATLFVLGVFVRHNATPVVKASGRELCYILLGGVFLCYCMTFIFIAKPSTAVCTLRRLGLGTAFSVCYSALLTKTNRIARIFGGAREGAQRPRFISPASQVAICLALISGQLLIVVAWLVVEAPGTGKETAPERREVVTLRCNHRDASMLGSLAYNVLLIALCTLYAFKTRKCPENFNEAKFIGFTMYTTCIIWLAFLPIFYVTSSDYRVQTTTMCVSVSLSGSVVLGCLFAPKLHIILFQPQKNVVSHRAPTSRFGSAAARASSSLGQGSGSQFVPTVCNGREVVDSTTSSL
quantity: IC50 (M)
Number in M, nothing else.

[in] Need IC50, item C[C@H]1CN(c2ccc(C(F)(F)F)cc2)C(=O)c2c(-c3ccnc(N4CCNCC4)c3)cnn21.Cl [compound 175, hydrochloride salt]
[out] 1.35e-06

[in] Same thing, different compound: CCCNc1cc(-c2cnn3c2C(=O)N(c2ccc(C(F)(F)F)c(Cl)c2)C[C@@H]3C)ccn1
[out] 2.69e-09

[in] Same thing, different compound: CCN(C)c1cc(-c2cnn3c2C(=O)N(c2ccc(C(F)(F)F)c(Cl)c2)C[C@@H]3C)ccn1
[out] 1.7e-09

[in] Same thing, different compound: C[C@H]1CN(c2ccc(C(F)(F)F)cn2)C(=O)c2c(-c3ccncc3)cnn21
[out] 2.09e-07

[in] Same thing, different compound: C[C@H]1CN(c2ccc(C(F)(F)F)cc2)C(=O)c2c(-c3ccnc(N4CCC4)c3)cnn21
[out] 8.32e-09

[in] Same thing, different compound: CCCNc1cc(-c2cnn3c2C(=O)N(c2ccc(C(F)(F)F)cc2)C[C@@H]3C)ccn1
[out] 1.78e-08

[in] Same thing, different compound: CCOc1cc(-c2cnn3c2C(=O)N(c2ccc(Cl)c(Cl)c2)C[C@@H]3C)ccn1
[out] 8.32e-09

[in] Same thing, different compound: C[C@H]1CN(c2ccc(C(F)(F)F)cc2)C(=O)c2c(-c3ccnc(CF)c3)cnn21
[out] 3.55e-08

[in] Same thing, different compound: COc1cc(-c2cnn3c2C(=O)N(c2ccc(C(F)(F)F)c(Cl)c2)C[C@@H]3C)ccn1
[out] 3.72e-09

[in] Same thing, different compound: CCCNc1cc(-c2cnn3c2C(=O)N(c2ccc(Cl)c(Cl)c2)C[C@@H]3C)ccn1
[out] 4.68e-09

[in] Same thing, different compound: CC(C)Nc1cc(-c2cnn3c2C(=O)N(c2ccc(Cl)c(Cl)c2)C[C@@H]3C)ccn1
[out] 1.1e-08

[in] Same thing, different compound: C[C@H]1CN(c2ccc(C(F)(F)F)cc2)C(=O)c2c(-c3ccnc(N4CCOCC4)c3)cnn21
[out] 1.23e-07

[in] Same thing, different compound: Cc1ccc(-c2cnn3c2C(=O)N(c2ccc(C(F)(F)F)cc2)C[C@@H]3C)cn1
[out] 8.32e-07

[in] Same thing, different compound: Cc1cc(-c2cnn3c2C(=O)N(c2ccc(Cl)cc2F)C[C@@H]3C)ccn1
[out] 2.57e-07

[in] Same thing, different compound: Cc1cc(-c2cnn3c2C(=O)N(c2cc(Cl)c(C)cn2)C[C@@H]3C)ccn1
[out] 9.12e-08

[in] Same thing, different compound: CC(C)c1cc(-c2cnn3c2C(=O)N(c2ccc(C(F)(F)F)cc2)C[C@@H]3C)ccn1
[out] 5.75e-09

[in] Same thing, different compound: C[C@H]1CN(c2ccc(C(F)(F)F)cc2)C(=O)c2c(-c3ccnc(N4CCCCC4)c3)cnn21
[out] 1.78e-08

[in] Same thing, different compound: C[C@H]1CN(c2ccc(C(F)(F)F)cc2)C(=O)c2c(-c3ccnc(N4CC(F)C4)c3)cnn21
[out] 5.5e-08

[in] Same thing, different compound: COc1ccc(N2C[C@H](C)n3ncc(-c4ccnc(C)c4)c3C2=O)cc1Cl
[out] 8.71e-08

[in] Same thing, different compound: COc1nc(N2C[C@H](C)n3ncc(-c4ccnc(N5CCC5)c4)c3C2=O)ccc1C(F)(F)F
[out] 6.46e-09

[in] Same thing, different compound: Cc1cc(-c2cnn3c2C(=O)N(c2ccc(C(F)(F)F)cc2)C[C@@H]3C)cc[n+]1[O-]
[out] 5.13e-07

[in] Same thing, different compound: COc1cc(N2C[C@H](C)n3ncc(-c4ccnc(C)c4)c3C2=O)cc(F)c1F
[out] 8.13e-07

[in] Same thing, different compound: CNc1cc(-c2cnn3c2C(=O)N(c2ccc(Cl)cc2)C[C@@H]3C)ccn1
[out] 2.4e-08

[in] Same thing, different compound: COCC1CN(c2ccc(Cl)c(Cl)c2)C(=O)c2c(-c3ccnc(C)c3)cnn21 (single isomer, unassigned) [compound 119]
[out] 2.51e-06

[in] Same thing, different compound: Cc1cc(-c2cnn3c2C(=O)N(c2ccc(C(F)(F)F)c(Cl)n2)C[C@@H]3C)ccn1
[out] 4.07e-09

[in] Same thing, different compound: C[C@H]1CN(c2ccc(C(F)(F)F)cc2)C(=O)c2c(-c3ccnc(C4CC4)c3)cnn21
[out] 4.37e-09

[in] Same thing, different compound: Cc1cc(-c2cnn3c2C(=O)N(c2ccc(Cl)cc2C)C[C@@H]3C)ccn1
[out] 1.05e-06

[in] Same thing, different compound: Cc1cc(-c2cnn3c2C(=O)N(c2ccc(F)c(C(F)(F)F)c2)C[C@@H]3C)ccn1
[out] 6.31e-08

[in] Same thing, different compound: Cc1cc(-c2cnn3c2C(=O)N(c2ccc(C(F)(F)F)c(OC(C)C)c2)C[C@@H]3C)ccn1
[out] 2e-08

[in] Same thing, different compound: COCC1CN(c2ccc(C(F)(F)F)cc2)C(=O)c2c(-c3ccnc(C)c3)cnn21 (single isomer, unassigned) [compound 120]
[out] 6.46e-08

[in] Same thing, different compound: CCOc1cc(-c2cnn3c2C(=O)N(c2ccc(C(F)(F)F)cc2)C[C@@H]3C)ccn1
[out] 6.61e-09
